tested on: SF-295; assay: NCI tumour cell line growth inhibition, 48 h
Calls of active or inactive are those of the source. Rule as the data show it: active = GI50 up to about 1.1 µM and inactive = higher.
readout-kind: GI50

These recorded examples may help you get a feel for the data.
> print(dat)
                                   compound             reported
1  N#CC(/C(=N/NC(=N)N)C(=O)Nc1ccccc1[N+](=O)[O-])c1nc(-c2ccc([N+](=O)[O-])cc2)cs1 (stereo not drawn)  > 100 µM (inactive)
2    Cc1[nH]c2ncn3[nH]c(=S)nc3c2c1Cc1ccccc1  > 100 µM (inactive)

Here "O=c1ccn2n1Cc1ccccc1C2" was tested on SF-295, and its GI50 came to > 100 µM (inactive)

----------
system: CAKI-1; assay: NCI tumour cell line growth inhibition, 48 h
Calls of active or inactive are those of the source. Rule as the data show it: active = GI50 up to about 1.1 µM and inactive = higher.
Could you please pick one outcome from this set? active, inactive

molecule	target-system	group-label
c1ccc(CN[C@]23C4C5CC6C7C5C2C7[C@@](NCc2ccccc2)(C64)N3Cc2ccccc2)cc1 (some centres undefined)	CAKI-1	inactive

Given "CC1=C[C@@H](C)C[C@]2(C)CC[C@H](O2)[C@]23CC[C@](C)(C[C@H](O2)[C@@H]2O[C@@](C)(CC2=O)[C@@H](O)[C@H]2CC[C@@]4(CCC[C@@H](O4)[C@H](C)C(=O)O[C@H]4C[C@H]([C@]5(O)OCC[C@H](C)[C@@H]5O)O[C@H]4C=C1)O2)O3" , state the outcome it received in this test.
active

Assay outcome for "CCC(=O)c1ccc2[nH]c3c(C)c4c(O)cc(C)nc4c(C)c3c2c1" : what was it?
inactive

Kindly provide the recorded test outcome for the following molecule: Fc1ccc(C(OCCN2CC3CC2CN3)c2ccc(F)cc2)cc1 (centres undefined)
inactive

----------
test system: 786-0; test: NCI tumour cell line growth inhibition, 48 h
The source made the active and inactive calls. Cut-off read from the data, not from the text of the source: active = GI50 up to about 1.1 µM and inactive = higher.
Mark one answer only. Choices: y for active, n for inactive

Some solved entries appear below for comparison.
compound	group-label
C=CCNC(=O)NC(=O)CSC1=NC(=O)C2(NN1)c1ccccc1-c1ccccc12	n
CCOC(=O)c1cc(=O)c2ccnc3c2n1CCS3	n
CCCC(=O)n1[nH]c(=O)n(-c2ccc(Cl)cc2)c1=O	n
CNC(=O)c1ccccc1-[s+]1c2ccccc2c(=O)n1C (centres undefined)	n
C=Cc1cc(OC)c2c(c1)c(=O)oc1c2cc(OC)c2c(O)ccc(C3OC(C)C(O)C(C)(O)C3O)c21 (centres undefined)	y

What did the test return for "O=C(O)CCc1ccc(-c2ccccc2)[nH]1" ?
n

I'd appreciate the recorded outcome for "COc1ccc2c(c1OC)C(=O)O[C@@H]2[C@H]1c2cc3c(cc2CCN1C)OCO3" from this test.
n

Query: recorded result category for O=C1C2CCCCC2C(=O)N1n1c(-c2ccccc2)n[nH]c1=O (centres undefined) in this test
n

Per the records of this test, what outcome belongs to COc1ccc(CNC(C)C(=O)O)cc1 (centres undefined) ?
n

Outcome? "Cc1ccc(S(=O)(=O)c2c(O)c3ccccc3n(C)c2=O)cc1"
n

----------
Measured GI50 by item
tested on: TK-10; test: NCI tumour cell line growth inhibition, 48 h
Activity calls are given as the source filed them. No stated cut-off is given here; in the data, active = GI50 up to about 1.1 µM and inactive = higher.

The recorded GI50 for entry "CCc1ccc(Nc2cc(=O)n(C)c(SCc3ccccc3)n2)cc1" equals > 100 µM (inactive)

"CCCCCC(=O)OCC(=O)[C@H]1[C@H](C)C[C@H]2[C@@H]3C[C@H](F)C4=C/C(=N/OC(=O)c5cccc6c(=O)c7ccccc7[nH]c56)C=C[C@]4(C)[C@H]3[C@@H](O)C[C@@]21C" has a reported GI50 of 26.2 µM (inactive)

Record summary for "Cc1ncc([N+](=O)[O-])n1CCNS(=O)(=O)CCCn1ncnc1[N+](=O)[O-]" : reported GI50 = > 100 µM (inactive)

GET /value?item= "COCOCCC#CCO" &field=GI50 returns > 100 µM (inactive)
